measurement_protocol: Pharmacokinetics after intravenous and oral administration
measurement_context: rat, in vivo, iv, 10 mg/kg
readout: AUC(0-inf) (µM·h)
Enter your answer as a number in µM·h; do not include the unit.

Exercise: Field request: AUC(0-inf) | item: O=C(Nc1ccc(OC(F)(F)F)c(F)c1)NC1CCC(Oc2ccc(C=C3SC(=O)NC3=O)cc2)CC1 (stereo not shown)
Key: 16.9

###

measurement_protocol: Pharmacokinetics after intravenous and oral administration
measurement_context: rat, in vivo, iv, 10 mg/kg
readout: Tmax (min)
Enter your answer as a number in min; do not include the unit.

Exercise: Field request: Tmax | item: O=C(Nc1ccc(OC(F)(F)F)c(F)c1)NC1CCC(Oc2ccc(C=C3SC(=O)NC3=O)cc2)CC1 (stereo not shown) [SP-B07]
Key: 4.98

###

measurement_protocol: Pharmacokinetics after intravenous and oral administration
measurement_context: rat, in vivo, po, 50 mg/kg
Experimental: Blood levels were measured within 8 hours after oral administration. […] Table 7 PK of SP-B07 after intravenous and oral administration in rats (n=3)
readout: AUC(0-inf) (µM·h)
Enter your answer as a number in µM·h; do not include the unit.

Exercise: Field request: AUC(0-inf) | item: O=C(Nc1ccc(OC(F)(F)F)c(F)c1)NC1CCC(Oc2ccc(C=C3SC(=O)NC3=O)cc2)CC1 (stereo not shown) [SP-B07]
Key: 17.7

###

measurement_protocol: Pharmacokinetics after intravenous and oral administration
measurement_context: rat, in vivo, iv, 10 mg/kg
readout: clearance (mL/min/kg)
Enter your answer as a number in mL/min/kg; do not include the unit.

Exercise: Field request: clearance | item: O=C(Nc1ccc(OC(F)(F)F)c(F)c1)NC1CCC(Oc2ccc(C=C3SC(=O)NC3=O)cc2)CC1 (stereo not shown) [SP-B07]
Key: 13.2

###

measurement_protocol: Pharmacokinetics after intravenous and oral administration
measurement_context: rat, in vivo, iv, 10 mg/kg
readout: Vd (L/kg)
Enter your answer as a number in L/kg; do not include the unit.

Exercise: Field request: Vd | item: O=C(Nc1ccc(OC(F)(F)F)c(F)c1)NC1CCC(Oc2ccc(C=C3SC(=O)NC3=O)cc2)CC1 (stereo not shown) [SP-B07]
Key: 3.71

###

measurement_protocol: Pharmacokinetics after intravenous and oral administration
measurement_context: rat, in vivo, iv, 10 mg/kg, t1/2, rats, i.v. 10 mg/kg
readout: half-life
Answer format reminder: number followed by unit.

Exercise: Field request: half-life | item: O=C(Nc1ccc(OC(F)(F)F)c(F)c1)NC1CCC(Oc2ccc(C=C3SC(=O)NC3=O)cc2)CC1 (stereo not shown)
Key: 1.91 h

###

assay_target: murine sEH (MsEH) (Mus musculus)
Sequence (P34914 1-554): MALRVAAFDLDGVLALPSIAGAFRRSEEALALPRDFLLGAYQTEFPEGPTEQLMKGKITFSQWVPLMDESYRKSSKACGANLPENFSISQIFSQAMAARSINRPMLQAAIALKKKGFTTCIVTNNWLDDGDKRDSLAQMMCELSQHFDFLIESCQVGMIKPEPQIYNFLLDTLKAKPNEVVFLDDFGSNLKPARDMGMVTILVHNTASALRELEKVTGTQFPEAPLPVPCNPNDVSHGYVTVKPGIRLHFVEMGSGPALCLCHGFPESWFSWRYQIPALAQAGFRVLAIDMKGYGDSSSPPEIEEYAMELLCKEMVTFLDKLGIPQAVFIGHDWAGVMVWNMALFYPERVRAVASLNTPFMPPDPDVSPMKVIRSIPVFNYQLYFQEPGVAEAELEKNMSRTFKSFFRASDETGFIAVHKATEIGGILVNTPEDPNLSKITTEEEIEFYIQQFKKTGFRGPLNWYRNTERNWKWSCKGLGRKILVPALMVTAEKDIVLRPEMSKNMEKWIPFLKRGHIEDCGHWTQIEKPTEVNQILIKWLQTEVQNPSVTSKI
measurement_protocol: biochemical
readout: IC50 (pM)
Enter your answer as a number in pM; do not include the unit.

Exercise: Field request: IC50 | item: O=C(Nc1ccc(OC(F)(F)F)c(F)c1)N[C@H]1CC[C@H](Oc2ccc(/C=C3\SC(=O)NC3=O)cc2)CC1
Key: 1100

Exercise: Field request: IC50 | item: O=C(Nc1ccc(OC(F)(F)F)c(F)c1)NC1CCC(Oc2ccc(C=C3SC(=O)NC3=O)cc2)CC1 (stereo not shown)
Key: 420

Exercise: Field request: IC50 | item: CC12CC3CC(C)(C1)CC(NC(=O)N1CCC(Oc4ccc(CC5SC(=O)NC5=O)cc4)CC1)(C3)C2 (stereo not shown)
Key: 8300

Exercise: Field request: IC50 | item: CC12CC3CC(C)(C1)CC(NC(=O)N1CCC(Oc4ccc(/C=C5\SC(=O)NC5=O)cc4)CC1)(C3)C2
Key: 23400

Exercise: Field request: IC50 | item: CC12CC3CC(C)(C1)CC(NC(=O)N[C@H]1CC[C@H](Oc4ccc(CC5SC(=O)NC5=O)cc4)CC1)(C3)C2 (stereo partly shown)
Key: 540

Exercise: Field request: IC50 | item: CCOC(=O)CC(=O)Nc1ccc(O[C@H]2CC[C@H](NC(=O)Nc3ccc(OC(F)(F)F)c(F)c3)CC2)cc1 [SP-C01s]
Key: 600

Exercise: Field request: IC50 | item: CC12CC3CC(C)(C1)CC(NC(=O)N1CCC(Oc4ccc(/C=C5\NC(=O)NC5=O)cc4)CC1)(C3)C2
Key: 135000

Exercise: Field request: IC50 | item: O=C1NC(=O)/C(=C/c2ccc(OC3CCN(C(=O)Nc4ccc(OC(F)(F)F)cc4)CC3)cc2)N1
Key: 108000

Exercise: Field request: IC50 | item: NC(=O)c1ccc(O[C@H]2CC[C@H](NC(=O)Nc3ccc(OC(F)(F)F)cc3)CC2)cc1 [SP-C01i]
Key: 700

Exercise: Field request: IC50 | item: O=C(Nc1ccc(OC(F)(F)F)c(F)c1)N[C@H]1CC[C@H](Oc2ccc(CC3SC(=O)NC3=O)cc2)CC1 (stereo partly shown)
Key: 670
